All figures here come from patent US5767142A.

System: KBV-1 cells (multidrug-resistant variant of KB3-1, overexpress MDR1)
Protocol text: MTT cytotoxicity assay, multidrug-resistant KBV-1
Assay type: cell-based, human
Condition parameters: Homo sapiens, KB-V1, 96 h; 4 days continuous drug exposure; read-out: Cytotoxicity IC50, KBV-1
Property name: IC50 (nM)
Quick reminder: number only, in nM, skip the unit.

INSERT INTO measurements (compound, reported) VALUES
  ('c1cc(-c2ccc3nc(-c4ccc5nc(-c6ccc7nc[nH]c7c6)[nH]c5c4)[nH]c3c2)ccn1', 10),
  ('c1cncc(-c2ccc3nc(-c4ccc5nc(-c6ccc7nc[nH]c7c6)[nH]c5c4)[nH]c3c2)c1', 20),
  ('CCOc1ccc(-c2nc3cc(-c4nc5cc(N6CCN(C)CC6)ccc5[nH]4)ccc3[nH]2)cc1 [Hoechst 33342, reference compound]', 1200);

Now consider the entry below.
Which IC50 is reported for this compound? c1ccc(-c2ccc3nc(-c4ccc5nc(-c6ccc7nc[nH]c7c6)[nH]c5c4)[nH]c3c2)nc1
90
